system: Escherichia coli (E. coli) strain CFT073 ATCC 700928; assay type: cell-based; details: ATCC 700928, 22 h
*1 amine or outer side, *2 acyl side, *3 side chain or, on linkers, in order; H or OH if unused. Where a SMILES comes first, the peptide text is derived from it. [ ]: non-standard residue; d: D form. X13 = C[C@H](CO[C@H](CC1CC2(CCC2)C1)[C@@H](C)C(=O)[*:2])N[*:1]; X2 = CCCCCC[C@@H](OC[C@@H](C)N[*:1])[C@@H](C)C(=O)[*:2]; aThr = C[C@H](O)[C@H](N)C(=O)O; NMeL = CN[C@@H](CC(C)C)C(=O)O; Chg = N[C@H](C(=O)O)C1CCCCC1; NMeNva = CCC[C@H](NC)C(=O)O; Dap = NC[C@H](N)C(=O)O
Each record is given true (1) if its reported MIC is strictly below 3 µM. Records at or above 3 µM are given false (0).

// known answers, use as guide
compound="CCCCCCCCCCCC[C@H]1OC(=O)CNC(=O)[C@H]([C@H](C)O)NC(=O)[C@H](CO)NC(=O)[C@H]([C@@H](C)CC)NC(=O)[C@H](CC(C)C)N(C)C(=O)[C@@H]1C [Example 35]" category_label="false (0)"
compound="CC[C@@H](C)[C@@H]1NC(=O)[C@H](CC(C)C)N(C)C(=O)[C@H](C)[C@@H](CCC23CC4CC(CC(C4)C2)C3)OC(=O)CNC(=O)[C@H](CO)NC(=O)[C@H](CN)NC1=O [Example 94]" category_label="false (0)"
compound="CCCCCC[C@H]1OC(=O)CNC(=O)[C@H]([C@H](C)O)NC(=O)[C@H](CN)NC(=O)[C@H]([C@H](C)CC)NC(=O)[C@H](CC(C)C)N(C)C(=O)[C@@H]1C [Example 34]" category_label="false (0)"
compound="CCCCCCCCCC[C@H]1OC(=O)CNC(=O)[C@H](CO)NC(=O)[C@H](CN)NC(=O)[C@H]([C@H](C)CC)NC(=O)[C@H](CC(C)C)N(C)C(=O)[C@@H]1C [Example 12]" category_label="false (0)"
compound="CCCCCC[C@H]1OC[C@@H](C)NC(=O)[C@H](COc2cccc(CN)c2)NC(=O)[C@H](CN)NC(=O)[C@H](C2CCCCC2)NC(=O)[C@H](CC(C)C)N(C)C(=O)[C@@H]1C [Example 167]" category_label="true (1)"
compound="CCCCCC[C@H]1OC(=O)CNC(=O)[C@H]([C@H](C)O)NC(=O)[C@H](CN)NC(=O)[C@H](C2CC3(CCC3)C2)NC(=O)[C@H](CC(C)C)N(C)C(=O)[C@@H]1C [Example 55]" category_label="false (0)"
compound="CCCCCC[C@H]1OC[C@@H](C)NC(=O)[C@H](COC)NC(=O)[C@H](CN)NC(=O)[C@H](C2CCCCC2)NC(=O)[C@H](CC(C)C)N(C)C(=O)[C@@H]1C [Example 128] (cyclo([Chg][Dap]S(Me)[X2][NMeL]))" category_label="false (0)"
compound="CCC[C@H]1C(=O)N[C@@H](C2CCCCC2)C(=O)N[C@@H](CN)C(=O)N[C@@H]([C@H](C)O)C(=O)N[C@H](C)CO[C@H](CC2CC3(CCC3)C2)[C@@H](C)C(=O)N1C [Example 156] (cyclo([Chg][Dap][aThr][X13][NMeNva]))" category_label="true (1)"

Data request: Lab note: MIC threshold 3 µM. Does this compound come in strictly under it? CCCC(C)(C)CC[C@H]1OC(=O)CNC(=O)[C@H]([C@H](C)O)NC(=O)[C@H](CN)NC(=O)[C@H]([C@H](C)CC)NC(=O)[C@H](CC(C)C)N(C)C(=O)[C@@H]1C [Example 103]
Data returned: false (0)

Data request: Lab note: MIC threshold 3 µM. Does this compound come in strictly under it? CCCCCCCCCC[C@H]1OC(=O)CNC(=O)[C@H](CN)NC(=O)[C@H](CO)NC(=O)[C@H]([C@@H](C)CC)NC(=O)[C@H](CC(C)C)N(C)C(=O)[C@@H]1C [Example 19]
Data returned: false (0)
